ASSAY_SYSTEM: activated human C1 (Homo sapiens, UniProt P09871)
Construct: cleavage of fluid-phase human C2 in presence of C4
Sequence (P09871 16-688): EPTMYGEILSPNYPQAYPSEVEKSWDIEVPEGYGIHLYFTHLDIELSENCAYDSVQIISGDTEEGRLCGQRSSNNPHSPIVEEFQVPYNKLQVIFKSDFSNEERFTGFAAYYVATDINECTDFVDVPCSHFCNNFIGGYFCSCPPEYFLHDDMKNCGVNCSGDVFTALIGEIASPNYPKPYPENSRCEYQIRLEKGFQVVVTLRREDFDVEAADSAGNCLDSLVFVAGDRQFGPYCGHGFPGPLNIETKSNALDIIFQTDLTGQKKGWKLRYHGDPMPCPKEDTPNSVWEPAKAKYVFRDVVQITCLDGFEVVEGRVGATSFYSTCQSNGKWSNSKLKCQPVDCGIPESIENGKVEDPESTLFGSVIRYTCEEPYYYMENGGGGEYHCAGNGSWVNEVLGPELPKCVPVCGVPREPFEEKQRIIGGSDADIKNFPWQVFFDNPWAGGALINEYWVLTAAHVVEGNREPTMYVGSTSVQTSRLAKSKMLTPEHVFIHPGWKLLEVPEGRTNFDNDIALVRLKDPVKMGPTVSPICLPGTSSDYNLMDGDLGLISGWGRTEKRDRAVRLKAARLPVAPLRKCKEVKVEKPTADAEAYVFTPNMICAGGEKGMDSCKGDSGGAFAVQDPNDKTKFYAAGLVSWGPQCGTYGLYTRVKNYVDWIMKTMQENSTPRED
Sequence (P00736 18-705 partner): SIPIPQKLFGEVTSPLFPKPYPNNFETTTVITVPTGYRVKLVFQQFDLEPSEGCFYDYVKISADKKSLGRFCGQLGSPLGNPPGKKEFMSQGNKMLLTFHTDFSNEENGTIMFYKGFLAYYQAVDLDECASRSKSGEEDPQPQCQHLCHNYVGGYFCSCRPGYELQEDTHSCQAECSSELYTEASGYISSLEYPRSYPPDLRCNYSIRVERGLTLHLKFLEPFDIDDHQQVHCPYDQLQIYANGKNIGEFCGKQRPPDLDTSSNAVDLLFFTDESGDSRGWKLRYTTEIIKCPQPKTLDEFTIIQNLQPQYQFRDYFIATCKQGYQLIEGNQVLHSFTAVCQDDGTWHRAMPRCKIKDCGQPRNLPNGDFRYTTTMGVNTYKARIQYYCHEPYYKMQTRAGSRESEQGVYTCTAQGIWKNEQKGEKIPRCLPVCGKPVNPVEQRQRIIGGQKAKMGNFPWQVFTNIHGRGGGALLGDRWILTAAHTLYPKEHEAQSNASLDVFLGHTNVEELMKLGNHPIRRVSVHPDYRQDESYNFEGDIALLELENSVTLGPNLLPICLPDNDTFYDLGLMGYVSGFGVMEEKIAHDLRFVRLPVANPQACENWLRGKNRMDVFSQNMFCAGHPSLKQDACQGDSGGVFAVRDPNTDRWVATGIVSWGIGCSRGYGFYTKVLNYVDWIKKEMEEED
Sequence (P02745 23-245 partner): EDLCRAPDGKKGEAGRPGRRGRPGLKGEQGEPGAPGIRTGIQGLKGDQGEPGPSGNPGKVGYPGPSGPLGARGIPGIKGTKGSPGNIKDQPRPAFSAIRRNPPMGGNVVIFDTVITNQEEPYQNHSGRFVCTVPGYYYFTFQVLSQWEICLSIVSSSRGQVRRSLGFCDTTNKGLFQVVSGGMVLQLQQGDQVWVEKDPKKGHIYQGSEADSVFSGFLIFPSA
Sequence (P02746 28-253 partner): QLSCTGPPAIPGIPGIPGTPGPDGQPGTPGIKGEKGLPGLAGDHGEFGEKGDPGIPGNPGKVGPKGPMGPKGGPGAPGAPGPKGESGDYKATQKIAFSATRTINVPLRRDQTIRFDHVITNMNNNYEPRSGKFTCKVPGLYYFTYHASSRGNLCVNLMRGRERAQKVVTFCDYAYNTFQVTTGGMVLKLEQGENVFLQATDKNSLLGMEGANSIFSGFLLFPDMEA
Sequence (P02747 29-245 partner): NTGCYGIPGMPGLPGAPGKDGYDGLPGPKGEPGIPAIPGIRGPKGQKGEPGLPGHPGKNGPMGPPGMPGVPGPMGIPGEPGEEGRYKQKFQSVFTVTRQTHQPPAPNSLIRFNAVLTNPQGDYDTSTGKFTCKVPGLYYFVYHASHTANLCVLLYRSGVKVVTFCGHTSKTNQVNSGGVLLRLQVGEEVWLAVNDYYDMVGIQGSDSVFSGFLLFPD
EXPERIMENT_NOTES: Test Code 026 (C1-inhibitor)
Type: biochemical
CONDITIONS_USED: serial twofold dilution assay; higher well number indicates higher activity
ASSAY_ENDPOINT: Cl 026* Wells

Solved cases below.
O=C(Nc1cccc(S(=O)(=O)Nc2cccc(S(=O)(=O)Nc3cc(S(=O)(=O)O)cc4cc(S(=O)(=O)O)cc(S(=O)(=O)O)c34)c2)c1)Nc1cccc(S(=O)(=O)Nc2cccc(S(=O)(=O)Nc3cc(S(=O)(=O)O)cc4cc(S(=O)(=O)O)cc(S(=O)(=O)O)c34)c2)c1    +4 Wells
Cc1ccc(S(=O)(=O)Nc2ccc(S(=O)(=O)O)c3cc(S(=O)(=O)O)cc(S(=O)(=O)O)c23)cc1NS(=O)(=O)c1cccc(NC(=O)Nc2cccc(S(=O)(=O)Nc3cc(S(=O)(=O)Nc4ccc(S(=O)(=O)O)c5cc(S(=O)(=O)O)cc(S(=O)(=O)O)c45)ccc3C)c2)c1    +3 Wells
Cc1ccc(NC(=O)Nc2ccc(C)c(S(=O)(=O)Nc3ccc(C)c(S(=O)(=O)Nc4cc(S(=O)(=O)[O-])cc5cc(S(=O)(=O)[O-])cc(S(=O)(=O)[O-])c45)c3)c2)cc1S(=O)(=O)Nc1ccc(C)c(S(=O)(=O)Nc2cc(S(=O)(=O)[O-])cc3cc(S(=O)(=O)[O-])cc(S(=O)(=O)[O-])c23)c1.[Na+].[Na+].[Na+].[Na+].[Na+].[Na+]    +3 Wells

// query Sample Cc1ccc(C(=O)Nc2ccc(S(=O)(=O)O)c3cc(S(=O)(=O)O)cc(S(=O)(=O)O)c23)cc1NC(=O)c1cccc(NC(=O)Nc2cccc(C(=O)Nc3cc(C(=O)Nc4ccc(S(=O)(=O)O)c5cc(S(=O)(=O)O)cc(S(=O)(=O)O)c45)ccc3C)c2)c1 [Suramin, reference compound] — what was its Cl 026* Wells?
// result +4 Wells
